assayRemarks: Microsomal intrinsic clearance (Clint), mouse
Type: in vitro ADME
runParameters: mouse liver microsomes, 0.5 μM compound
parameter: mouse microsomal intrinsic clearance (mL min^–1 g^–1)
Please state the figure in mL min^–1 g^–1; there is no need to write the unit.

Example cases with answers are listed next.
Q: Recorded mouse microsomal intrinsic clearance for CNC(=O)C1Cc2cc(Br)ccc2N1C(=O)COc1ccc(F)cc1 (centres unmarked) [Compound 60] , please?
Ans: 4.6

Q: Recorded mouse microsomal intrinsic clearance for CNC(=O)C1Cc2ccccc2N1C(=O)Cc1ccc(F)cc1 (centres unmarked) [Compound 43] , please?
Ans: 0.8

Q: Recorded mouse microsomal intrinsic clearance for CNC(=O)C1Cc2cc(F)ccc2N1C(=O)COc1ccc(Cl)cc1 (centres unmarked) [Compound 54] , please?
Ans: 2.8

Q: Recorded mouse microsomal intrinsic clearance for CNC(=O)C1Cc2ccccc2N1C(=O)Cc1ccc(C(C)C)cc1 (centres unmarked) [Compound 41] , please?
Ans: 35

Others:
Q: Recorded mouse microsomal intrinsic clearance for CNC(=O)C1N(C(=O)COc2ccc(Cl)cc2)c2ccccc2C1(C)C (centres unmarked) [Compound 63] , please?
Ans: 14

###

assayRemarks: Microsomal intrinsic clearance (Clint), mouse
Format: in vitro ADME
runParameters: mouse liver microsomes, 0.5 μM compound
# reported mouse microsomal intrinsic clearance; entries follow
Please state the figure in mL min^–1 g^–1; there is no need to write the unit.

Example cases with answers are listed next.
Q: Recorded mouse microsomal intrinsic clearance for CNC(=O)C1Cc2ccccc2N1C(=O)COc1ccccc1 (stereo not shown) , please?
Ans: 6.9

Q: Recorded mouse microsomal intrinsic clearance for CCNC(=O)C1Cc2ccccc2N1C(=O)COc1ccc(Cl)cc1 (stereo not shown) , please?
Ans: 6.2

Q: Recorded mouse microsomal intrinsic clearance for `CNC(=O)[C@H]1Cc2ccccc2N1C(=O)Cc1ccc(Cl)c(F)c1` , please?
Ans: 8.4

Okay, next one:
Q: Recorded mouse microsomal intrinsic clearance for CCCCNC(=O)C1Cc2ccccc2N1C(=O)COc1ccc(Cl)cc1 (stereo not shown) , please?
Ans: 27

###

assayRemarks: Plasma protein binding by equilibrium dialysis, mouse
Format: in vitro ADME
runParameters: read-out: plasma protein binding, Fu (fraction unbound)
# reported fraction unbound; entries follow
Just the number, please, no unit attached.

Example cases with answers are listed next.
Q: Recorded fraction unbound for CNC(=O)C1Cc2ccccc2N1C(=O)COc1ccc(F)cc1 (stereo not drawn) [Compound 35] , please?
Ans: 0.42

Q: Recorded fraction unbound for CNC(=O)C1Cc2cc(F)ccc2N1C(=O)COc1ccc(F)cc1 (stereo not drawn) [Compound 55] , please?
Ans: 0.33

Okay, next one:
Q: Recorded fraction unbound for CNC(=O)[C@H]1Cc2ccccc2N1C(=O)Cc1ccc(F)cc1 [Compound 47] , please?
Ans: 0.59

###

assayRemarks: In vivo mouse pharmacokinetics
runParameters: female, mouse, in vivo; IP, 10 mg/kg, NMRI mice; read-out: AUC0–8 (converted)
# reported AUC(0-t); entries follow
Please state the figure in ng·h/mL; there is no need to write the unit.

Example cases with answers are listed next.
Q: Recorded AUC(0-t) for CNC(=O)C1Cc2cc(F)ccc2N1C(=O)COc1ccc(F)cc1 (stereo not drawn) [Compound 55] , please?
Ans: 11800

Q: Recorded AUC(0-t) for CNC(=O)C1Cc2ccccc2N1C(=O)COc1ccc(F)cc1 (stereo not drawn) [Compound 35] , please?
Ans: 1830

Others:
Q: Recorded AUC(0-t) for CNC(=O)[C@H]1Cc2ccccc2N1C(=O)Cc1ccc(F)cc1 [Compound 47] , please?
Ans: 2830
